Molecular target: R132H mutant IDH1 enzyme (Homo sapiens (Human), UniProt O75874, R132H)
Sequence (O75874 whole entry R132H): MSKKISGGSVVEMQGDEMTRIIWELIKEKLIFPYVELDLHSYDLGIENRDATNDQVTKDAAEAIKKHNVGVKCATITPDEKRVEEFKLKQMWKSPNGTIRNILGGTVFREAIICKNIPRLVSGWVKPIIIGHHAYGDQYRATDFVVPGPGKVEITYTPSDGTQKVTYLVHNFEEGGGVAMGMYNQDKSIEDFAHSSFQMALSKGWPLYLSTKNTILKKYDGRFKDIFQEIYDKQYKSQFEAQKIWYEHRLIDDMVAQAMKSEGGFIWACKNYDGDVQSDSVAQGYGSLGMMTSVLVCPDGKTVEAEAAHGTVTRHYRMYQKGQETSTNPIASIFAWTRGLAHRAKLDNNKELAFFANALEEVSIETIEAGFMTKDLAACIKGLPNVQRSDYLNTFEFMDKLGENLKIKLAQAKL
Assay: R132H IDH1 Enzymatic Assay
Details: R132H mutant IDH1 enzyme 1.5 nM final; luminescence (Kinase-GLO) readout
TEST READOUT: IC50 (nM)
Output spec: scalar in nM, unitless text.

# annotated cases, reported IC50 shown
[[record]]
compound = "CC(C)[C@@H]1COC(=O)N1c1ccc2c(c1)N(C(=O)[C@]13C[C@H]4C[C@H](C[C@H](C4)C1)C3)Cc1cccnc1N2"
test_readout = "IC50"
unit_text = "nM"
readout_value = 22

[[record]]
compound = "O=C(C1C[C@H]2COC[C@@H](C1)N2CC(F)(F)F)N1Cc2cccnc2Nc2ccc(N3C[C@@H]4CC[C@H]3CO4)cc21 (some centres unmarked)"
test_readout = "IC50"
unit_text = "nM"
readout_value = 5

[[record]]
compound = "COC1CC2CCC(C1)C2C(=O)N1Cc2cccnc2Nc2ccc(N3CCOCC3)cc21 (centres unmarked) [Example 2]"
test_readout = "IC50"
unit_text = "nM"
readout_value = 226

[[record]]
compound = "COC1CC2CCC(C1)C2C(=O)N1Cc2cccnc2Nc2ccc(N3CCOCC3)cc21 (centres unmarked) [Example 1]"
test_readout = "IC50"
unit_text = "nM"
readout_value = 1050


Next, consider the following compound.
Documented IC50 of O=C(C1C[C@H]2COC[C@@H](C1)N2CC(F)(F)F)N1Cc2cccnc2Nc2ccc(N3C[C@H]4CC[C@@H]3CO4)cc21 (some centres unmarked) : 6
